# key: entry, value: kon
# system: T1, Cyno ST2-fc (cyno; human, UniProt A0A2K5UDB8 19-331)
# T1 construct: also called cyno ST2 fused with a human IgG1 Fc tag at the C-terminus
# T1 sequence: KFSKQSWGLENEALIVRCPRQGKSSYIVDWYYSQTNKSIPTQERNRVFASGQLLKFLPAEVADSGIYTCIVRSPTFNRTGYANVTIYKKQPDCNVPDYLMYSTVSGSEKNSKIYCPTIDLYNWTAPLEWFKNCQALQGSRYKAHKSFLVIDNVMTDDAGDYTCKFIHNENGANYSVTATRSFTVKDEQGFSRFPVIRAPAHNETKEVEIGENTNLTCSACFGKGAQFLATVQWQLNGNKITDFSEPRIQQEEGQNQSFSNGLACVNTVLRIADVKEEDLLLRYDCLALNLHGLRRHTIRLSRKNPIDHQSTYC
# experimentalProtocol: SPR Biacore X100, antibody on CM5, cyno ST2-fc analyte
Reply with just the number (in M⁻¹ s⁻¹).

Recorded kon, per entry:
# binder, propertyName, numericValue
data = [
    ("5886-156H+L (antibody, V domains shown, murine antibody) VH: DVQLQQSGPGLVKPSQSLSLTCTVTGYSITSDYAWNWIRQFPGNKLEWMGYIDYSGSTTYNPSLKSRFSITRDTSKNQFFLQLNSVTTEDTATYYCASTVIDSMDYWGQGTSVTVSS VL: DIVLTQSPASLAVSLGQRATISCRASKSVSTSGHSYMHWYQQKPGQPPKLLIYLASNLESGVPARFSGSGSGTDFTLNINPMEEEDAATYYCQHSREFPFTFGSGTKLEIK", "kon", "3.62e+06"),
    ("5888-357H+L (antibody, V domains shown, murine antibody) VH: QVQLQQSVTELVRPGASVTLSCKASGYRFTDSEMHWVKQTPVHGLEWIGTIDPETGGTVYNQKFKGKAKLTADRSSSTVSMELRSLTSEDSAVYYCTRAFYNDFDDGFAYWGQGTLVTVSA VL: QIVMTQSPAIMSASPGEKVTLTCSASTSVSYMHWYQQKSGTSPKRWIYDTSKLASGVPARFSGSGSGTSYSLTISSMEAEDAATYYCQQWSSNPLTFGAGTKLELK", "kon", "6.41e+06"),
    ("5888-153H1+L2 (antibody, V domains shown, murine antibody) VH: QVQLQQSGAELVRPGASVTLSCKASGYTFTDYELHWVKQTPVHGLEWIGTIDPETGDTVYNQKFKAKAILTADKSSSTAYMEFRSLTSEDSAVCYCTRAFYNDYDDGFAYWGQGTLVTVSA VL: QIVMTQTPAIMSASPGEKVTMTCSVSSSVSYMHWYQQKSGTSPKRWIYDTSKLASGVPARFSGSGSGTSYSLTINNMEAEDAATYYCQQWNSSPLTFGAGTKLELK", "kon", "9.68e+06"),
]

q: In one line, give reported kon of the entry 5887-41H+L (antibody, V domains shown, murine antibody) VH: DVQLQQSGPGLVKPSQSLSLTCTVTGYSITSDYAWDWIRQFPGNKLEWMGYIRYSGDTYYNPSLKSRISITRDTSKNQFFLQLNSVTTEDTATYYCATTMMDTMDYWGQGTSVTVSS VL: DIVLTQSPASLTVSLGQRATISCRASKSVSTSGNSYMHWYQQKPGQPPKLLIYLASNLESGVPARFSGSGSGTDFTLNIHPVEEEDAATYYCQHSREFPLTFGAGTKLELK .
a: 7.98e+06

q: Tell me its kon given 5888-379H1+L2 (antibody, V domains shown, murine antibody) VH: QIQLAQSGPELKKPGETVKISCKASGYTFINYGMNWVKQAPGKDLKWMGWINTYIGEPTYGDNFKGRFAFSLETSASTVYLQINNLKNEDTATYFCAREGDGFAYWGQGTLVTVSA VL: DIVMTQSPPSLSVSVGEKVTMSCKSSQSLLYSGNQNNYLAWYQQKPGQPPKLLIYGASTRESGVPDRFTGSGSGTDFTLTISSVQAEDLAVYYCQNDHSYPYTFGGGTKLEIK as the entry.
a: 4.78e+06

The reported measurements were obtained from patent US12624112.
